- System: SKBR3 cells (HER2 expressing cells)
- method.summary: CellTiter-Glo cell viability assay, SKBR3
- Format: cell-based
- condition.summary: Homo sapiens, SK-BR-3; PBD compounds, 72 h incubation
pIC50: −log10 of the molar value.
Assign class by pIC50: not lower than 9 means YES; lower than 9 means NO.

**Query** Textbook exercise: given the entry COc1cc2c(cc1OCCCC(=O)Nc1cc(C(=O)Nc3cc(C(=O)Nc4cc(C(=O)NCCCO)n(C)c4)n(C)c3)n(C)c1)N=C[C@@H]1CCCN1C2=O , state whether its pIC50 is greater than or equal to 9.
**Result** NO

**Query** Threshold query (pIC50 >= 9) on C=C1C[C@H]2C=Nc3cc(OCCCC(=O)Nc4cn(C)c(C(=O)Nc5cc(C(=O)Nc6cc(C(=O)n7ccc8cc(S(C)(=O)=O)ccc87)n(C)c6)n(C)c5)n4)c(OC)cc3C(=O)N2C1
**Result** NO

**Query** Is the recorded value of pIC50 equal to or greater than 9 for this molecule? C=C1C[C@H]2C=Nc3cc(OCCCC(=O)Nc4cn(C)c(C(=O)Nc5cc(C(=O)NCc6ccc(N)cc6)n(C)c5)n4)c(OC)cc3C(=O)N2C1
**Result** NO

**Query** Assess whether reported pIC50 for C=C1C[C@H]2C=Nc3cc(OCCCC(=O)Nc4cn(C)c(C(=O)Nc5cc(C(=O)Nc6cc(C(=O)n7ncc8cc(N)ccc87)n(C)c6)n(C)c5)n4)c(OC)cc3C(=O)N2C1 sits at 9 or higher.
**Result** YES
